// data source = patent US10442807B2

system: blackgrass (Alopecurus myosuroides); test: Test A postemergence application, visual injury rating; assay type: in vivo; conditions: 500 g ai/ha, approx. 10 d, 0 = no effect, 100 = complete control
quantity_name: Blackgrass plant response rating (0 to 100 scale)
No unit in the answer, only the number.

Req: Assign Blackgrass plant response rating (0 to 100 scale) to the following record: Cc1nnc2n1CC(c1ccc(Cl)cc1)C2C(=O)Nc1cccc(F)c1F (centres unmarked) [Compound 5]
Resp: 20

Req: Assign Blackgrass plant response rating (0 to 100 scale) to the following record: CCc1ccc(C2Cn3cnnc3C2C(=O)Nc2cccc(F)c2F)cc1 (centres unmarked) [Compound 11]
Resp: 20

Req: Assign Blackgrass plant response rating (0 to 100 scale) to the following record: Cc1ccc(C2Cn3c(C)nnc3C2C(=O)Nc2ccccc2F)cc1 (centres unmarked) [Compound 27]
Resp: 20

Req: Assign Blackgrass plant response rating (0 to 100 scale) to the following record: O=C(Nc1ccccc1F)C1c2nccn2CC1c1cccc(C(F)(F)F)c1 (centres unmarked) [Compound 4]
Resp: 40

* * *

Test system: barnyardgrass (Echinochloa crus-galli)
Experiment: Test A preemergence, directed soil spray, visual injury rating
Type: in vivo
Settings: 125 g ai/ha, approx. 10 d, 0 = no effect, 100 = complete control
Description: Seeds of plant species selected from barnyardgrass (Echinochloa crus-galli), kochia (Kochia scoparia), ragweed (common ragweed, Ambrosia elation), ryegrass, Italian (Italian ryegrass, Lolium multiflorum), foxtail, giant (giant foxtail, Setaria faberii), and pigweed (Amaranthus retroflexus), were planted into a blend of loam soil and sand and treated preemergence with a directed soil spray using test chemicals formulated in a non-phytotoxic solvent mixture which included a surfactant. […]
Listed below: Barnyardgrass plant response rating (0 to 100 scale) values for each entry.
No unit in the answer, only the number.

Here are 5 compounds together with their reported answers.
{"compound": "O=C(Nc1ccccc1F)C1C2=NCCCN2CC1c1cccc(C(F)(F)F)c1 (stereo not drawn)", "value": 0}
{"compound": "O=C(Nc1ccccc1F)C1c2nncn2CC1c1ccc(Cl)cc1 (stereo not drawn)", "value": 20}
{"compound": "Cc1ccc(C2Cn3cnnc3C2C(=O)Nc2cccc(F)c2F)cc1C (stereo not drawn)", "value": 70}
{"compound": "O=C(Nc1cccc(F)c1F)C1c2nncn2CC1c1ccc(C(F)(F)F)cc1 (stereo not drawn)", "value": 20}
{"compound": "Cc1ccc(C2Cn3cnnc3C2C(=O)Nc2cccc(F)c2C)cc1C (stereo not drawn)", "value": 60}

Req: Assign Barnyardgrass plant response rating (0 to 100 scale) to the following record: CCc1ccc(C2Cn3cnnc3C2C(=O)Nc2cccc(F)c2C)cc1 (stereo not drawn)
Resp: 60

Req: Assign Barnyardgrass plant response rating (0 to 100 scale) to the following record: CCc1ccc(C2Cn3c(C)nnc3C2C(=O)Nc2cccc(F)c2F)cc1 (stereo not drawn)
Resp: 60

Req: Assign Barnyardgrass plant response rating (0 to 100 scale) to the following record: CSc1ccccc1NC(=O)C1c2nncn2CC1c1ccc(C)c(C)c1 (stereo not drawn)
Resp: 20

Req: Assign Barnyardgrass plant response rating (0 to 100 scale) to the following record: Cc1ccc(C2Cn3cnnc3C2C(=O)Nc2ccccc2F)cc1 (stereo not drawn)
Resp: 60

Req: Assign Barnyardgrass plant response rating (0 to 100 scale) to the following record: O=C(Nc1ccccc1F)C1c2nccn2CC1c1cccc(C(F)(F)F)c1 (stereo not drawn)
Resp: 20

Req: Assign Barnyardgrass plant response rating (0 to 100 scale) to the following record: O=C(Nc1cccc(F)c1F)C1c2nnc(C(F)(F)F)n2CC1c1ccc(C(F)(F)F)cc1 (stereo not drawn)
Resp: 0

Req: Assign Barnyardgrass plant response rating (0 to 100 scale) to the following record: Cc1nnc2n1CC(c1ccc(Cl)cc1)C2C(=O)Nc1ccccc1F (stereo not drawn)
Resp: 0
